Hello, the source for this data is patent US9908896B2, in case you need it.

Assay: Single dose i.p. and i.v. blood brain barrier permeability study, plasma and brain concentration (LC-MS/MS)
Format: in vivo, male Sprague Dawley rat
Conditions: male, Sprague Dawley, rat, plasma, intraperitoneal, 10 mg/kg, 10 mg/kg i.p., mean of 3 rats, read-out: Concentration in rat plasma i.p. at 2 h, Mean
value.kind: concentration at 2 h (ng/mL)
Respond with the bare value in ng/mL.

// query Param item = CCCOc1ccc(Nc2nc3nonc3nc2N2CCC(Oc3ccc(Cl)cc3)CC2)cc1 [Comp 1] ; retrieve measured concentration at 2 h.
// result 91.5
